Test system: IGROV1
Assay: NCI one-dose SRB anti-proliferative screen
Assay type: cell-based
Details: Homo sapiens, IGROV-1; IGROV1 (Ovarian Cancer), NCI one dose 10 µM; read-out: Cell growth inhibition %
quantity kind: inhibition at 10 µM (%)
Give the quantity in %, number only.

smiles notation	target under test	quantity kind	observed value
O=C(CSc1nnc(-c2ccc3[nH]c(-c4ccc(Cl)cc4)nc3c2)o1)Nc1ccc(C(=O)/C=C/c2ccc(Cl)cc2)cc1	IGROV1	inhibition at 10 µM	14.4
COc1cc(-c2nc3cc(-c4nnc(SCC(=O)Nc5ccc(C(=O)/C=C/c6ccc(Cl)cc6)cc5)o4)ccc3[nH]2)cc(OC)c1OC	IGROV1	inhibition at 10 µM	18.4

Here is the next item to consider.
So, COc1cc(-c2nc3cc(-c4nnc(SCC(=O)Nc5ccc(C(=O)/C=C/c6ccccc6)cc5)o4)ccc3[nH]2)cc(OC)c1OC ? Its inhibition at 10 µM was 29

###

Quick reference for inhibition at 10 µM among some compounds
Test system: SW-620
Experiment: NCI one-dose SRB anti-proliferative screen
Format: cell-based
Settings: Homo sapiens; SW-620 (Colon Cancer), NCI one dose 10 µM; read-out: Cell growth inhibition %

smiles notation	inhibition at 10 µM
COc1ccc(/C=C/C(=O)c2ccc(NC(=O)CSc3nnc(-c4ccc5[nH]c(-c6ccc(Cl)cc6)nc5c4)o3)cc2)cc1	0%
COc1cc(-c2nc3cc(-c4nnc(SCC(=O)Nc5ccc(C(=O)/C=C/c6ccccc6)cc5)o4)ccc3[nH]2)cc(OC)c1OC	0%
COc1cc(-c2nc3cc(-c4nnc(SCC(=O)Nc5ccc(C(=O)/C=C/c6ccc(Cl)cc6)cc5)o4)ccc3[nH]2)cc(OC)c1OC	0%

For this compound ( COc1ccc(-c2nc3cc(-c4nnc(SCC(=O)Nc5ccc(C(=O)/C=C/c6ccc(Cl)cc6)cc5)o4)ccc3[nH]2)cc1OC ), measured inhibition at 10 µM is 0%

# compound O=C(CSc1nnc(-c2ccc3[nH]c(-c4ccc(Cl)cc4)nc3c2)o1)Nc1ccc(C(=O)/C=C/c2ccccc2)cc1 ; its inhibition at 10 µM = 0%

Record summary for COc1ccc(-c2nc3cc(-c4nnc(SCC(=O)Nc5ccc(C(=O)/C=C/c6ccccc6)cc5)o4)ccc3[nH]2)cc1OC : reported inhibition at 10 µM = 0%

The recorded inhibition at 10 µM for COc1ccc(/C=C/C(=O)c2ccc(NC(=O)CSc3nnc(-c4ccc5[nH]c(-c6ccc(OC)c(OC)c6)nc5c4)o3)cc2)cc1 is 0%

Record summary for O=C(CSc1nnc(-c2ccc3[nH]c(-c4ccc(Cl)cc4)nc3c2)o1)Nc1ccc(C(=O)/C=C/c2ccc(Cl)cc2)cc1 : reported inhibition at 10 µM = 0%

###

Test system: KM12
Assay: NCI one-dose SRB anti-proliferative screen
Format: cell-based
Details: Homo sapiens; KM12, Colon cancer; NCI one dose; read-out: Cell growth inhibition %
Here the recorded inhibition at 10 µM is given for each entry.
Note to self: number, then unit, no commentary.

Some solved entries appear below for comparison.
compound	inhibition at 10 µM
COc1ccc(/C=C/C(=O)c2ccc(NC(=O)CSc3nnc(-c4ccc5[nH]c(-c6ccccc6)nc5c4)o3)cc2)cc1OC [Compound 7d]	0%
O=C(CSc1nnc(-c2ccc3[nH]c(-c4ccccc4)nc3c2)o1)Nc1ccc(C(=O)/C=C/c2ccc(Cl)cc2)cc1 [Compound 7b]	0%

// inhibition at 10 µM value for COc1ccc(-c2nc3cc(-c4nnc(SCC(=O)Nc5ccc(C(=O)/C=C/c6ccc(OC)c(OC)c6)cc5)o4)ccc3[nH]2)cc1 [Compound 7n] : 23.4%

get_value(item= O=C(CSc1nnc(-c2ccc3[nH]c(-c4ccccc4)nc3c2)o1)Nc1ccc(C(=O)/C=C/c2ccccc2)cc1 [Compound 7a] , readout=inhibition at 10 µM) returns 0%

Note to self: inhibition at 10 µM recorded for COc1ccc(/C=C/C(=O)c2ccc(NC(=O)CSc3nnc(-c4ccc5[nH]c(-c6ccccc6)nc5c4)o3)cc2)cc1 [Compound 7c] was 1.55%

The compound identified as COc1ccc(-c2nc3cc(-c4nnc(SCC(=O)Nc5ccc(C(=O)/C=C/c6ccccc6)cc5)o4)ccc3[nH]2)cc1 [Compound 7k] registered its inhibition at 10 µM at 15.6%

Reported inhibition at 10 µM ( COc1ccc(-c2nc3cc(-c4nnc(SCC(=O)Nc5ccc(C(=O)/C=C/c6ccc(Cl)cc6)cc5)o4)ccc3[nH]2)cc1 [Compound 7l] ) = 0%

Record COc1ccc(-c2nc3cc(-c4nnc(SCC(=O)Nc5ccc(C(=O)/C=C/c6cc(OC)c(OC)c(OC)c6)cc5)o4)ccc3[nH]2)cc1 [Compound 7o] , field inhibition at 10 µM: 0%

In plain terms, COc1ccc(/C=C/C(=O)c2ccc(NC(=O)CSc3nnc(-c4ccc5[nH]c(-c6ccc(OC)cc6)nc5c4)o3)cc2)cc1 [Compound 7m] has a documented inhibition at 10 µM of 3.51%

Measured inhibition at 10 µM, COc1cc(/C=C/C(=O)c2ccc(NC(=O)CSc3nnc(-c4ccc5[nH]c(-c6ccccc6)nc5c4)o3)cc2)cc(OC)c1OC [Compound 7e] : 10%
